Tested on: MS2 coat protein
assay-text: apparent KD of MS2 coat protein; designed switch direction (-1 OFF switch, 1 ON switch): -1; higher = weaker reporter binding
test-parameters: input ligand: none
Classify by measured apparent KD of MS2 coat protein: yes (1) if it is equal to or exceeds 100 nM, no (0) if it is smaller.

Below are worked cases with known answers.
UAAGAUUACCGAGGAUAUGGUAAUUUUUGUUAACCAGAAGGCGGACUCAACAUGAGGAUCACCCAUGUAUAAAGGGUAUUAGUU [JR_ExcNG1_Sub040] (Eterna round: R96, puzzle: Exclusion NG 1) :: no (0)
AUAUACGGGCAGGAUAUGCGAGCCAGAAAGCACGCAGAAGGGCUAACAUGAGGAUCACCCAUGUGAGCAACUCG [Eternabot (Original) Solution 9] (Eterna round: R97, puzzle: Exclusion 6) :: no (0)
AGCUGUGGCCGAGGAUAUCUAAUAGUCCCAACCGAAAUAUAAUCGGACAUGAGGAUCACCCAUGUAGAGAAGGCGGUCUCAGCA [Eli eng2 - 069] (Eterna round: R96, puzzle: Exclusion NG 2) :: yes (1)

## Input Check this sequence for apparent KD of MS2 coat protein at or above 100 nM: UGUUGUCGCGUAGGAUAUGGCCAACAGGCCCUAGGAUAUGCGAAAGCAGAAGGAGCGCCAACAGGCGAGAAGGACGGGACAACU [pwkr exNG2 2xF7 2xFMN.17] (Eterna round: R96, puzzle: Exclusion NG 2)
## Output yes (1)

## Input Check this sequence for apparent KD of MS2 coat protein at or above 100 nM: ACAAGCUUAAUCUGUAUGAACAUGAGGAUCACCCAUGUAUAAGGGAAUUCUUUUGGGUUUUUUAUAGCUCGUCUUAU [JR_STOV1_Sub020] (Eterna round: R97, puzzle: Sensor, turn-off variant 1)
## Output yes (1)

* * *

Test system: MS2 coat protein
assay-text: apparent KD of MS2 coat protein; designed switch direction (-1 OFF switch, 1 ON switch): 1; higher = weaker reporter binding
test-parameters: input ligand: microRNA oligo, concentration not stated
Classify by measured apparent KD of MS2 coat protein: criterion met if it is equal to or exceeds 200 nM, criterion not met if it is smaller.

UGGCUGGUGCUAGGAUAUGCAUGAGGCCUCCUCGUAGAAGGAGCACGACAUGAGGAUCACCCAUGUGGCCGUCCGUGGGCGGCU [salish99_SSNG1_r04_015] (Eterna round: R96, puzzle: Same State NG 1) :: criterion not met
AUAUAACAUGAGGAUCACCCAUGUCUCUAAAGUCGAGGAUAUGGGCAGGUUAUAUCCGAACCAGAAGGCGGGUUAU [SS1 Teenbexe 8] (Eterna round: R96, puzzle: Same State 1) :: criterion met
UUCCCAUCGGGAGGAUAUGGAACCUUAUUGGUUCUAGAAGGUCCAACAUGAGGAUCACCCAUGUGGGAGUGGUCUAAUGACCUC [SS NG10LRO03] (Eterna round: R96, puzzle: Same State NG 1) :: criterion met
GGUGCCAAUAAAGCCUACAUGAGGAUCACCCAUGUAUGUAGGCAGGAUAUCGUUUGCAAAGCAAACGAGAAGGGCCGAGGCACC [Mat - Same State NG 3 - JL Mod - D55] (Eterna round: R96, puzzle: Same State NG 3) :: criterion not met
ACUUGCGGCACAGGAUAUGGGUGCCUGUACAUGAGGAUCACCCAUGUUAAGGGACGGAUUACGAACCAGAAGGGUGAGGCGGGC [Aqube] (Eterna round: R96, puzzle: Same State NG 2) :: criterion met

## Input Check this sequence for apparent KD of MS2 coat protein at or above 200 nM: AUAUGAGGAGCAGGAUAUGCGAAGAAGAAAGAAGUAGAAGGGCUCAUGGGACGACAUGAGGAUCACCCAUGUACUUCCCGAUGA [AK SSNG1-V2-7] (Eterna round: R96, puzzle: Same State NG 1)
## Output criterion not met

## Input Check this sequence for apparent KD of MS2 coat protein at or above 200 nM: GCUAGAAAUAAAGCCAACAUGAGGAUCACCCAUGUAUGUUGGUAGGAUAUCGUUUGCAAAGCAAACGAGAAGGGCUAAUCUAGC [Mat - Same State NG 3 - JL Mod - D65] (Eterna round: R96, puzzle: Same State NG 3)
## Output criterion not met

## Input Check this sequence for apparent KD of MS2 coat protein at or above 200 nM: AUUAAACAUGAGGAUCACCCAUGUCAACAAAGUCGAGGAUAUGGGCAUAUUAUCUAAUAACCAGAAGGCGAAUAAU [salish99_ss1_r3_085] (Eterna round: R96, puzzle: Same State 1)
## Output criterion not met

## Input Check this sequence for apparent KD of MS2 coat protein at or above 200 nM: AUUAUUAAUGCAGGAUAUGAUUAACAUGAGGAUCACCCAUGUGGUGUUGUGAGUAAGGAGAGUGAUCAGAAGGGCAUUUUUUUC [JMF's solution 20] (Eterna round: R96, puzzle: Same State NG 2)
## Output criterion met

* * *

Overview of reported apparent KD of MS2 coat protein across a group of sequences:
Tested on: MS2 coat protein
assay-text: apparent KD of MS2 coat protein; higher = weaker reporter binding
test-parameters: Eterna round: R107; input ligand: theophylline 2 mM
Give just the number in µM; leave the unit off.

Record excerpt, results attached:
AGAGAGGCGCAUGAUACCAGCUUGGCCUAACAUGAGGAUCACCCAUGUCAAUGGGCCUUAAGCCCUUGGCAGCAUAGGGUGUCCU [Xeestixexe] :: 0.0259
AGAGUCAGACAAAAGUCUGGCUCAGCCGAAGGAGCGUCCGAAAGGACAGGUAGGUCGCGGUUACCUGAGGAUCACCCAGGUUCCU [ArgAS 24 #OpenEnded #AlternativeMS2] :: 0.115
AGCACUGUGACGGCCGCCACUACAUAAAUUGGGUGGUCAGGUUCAUUACAUGAGGAUCACCCAUGUAGGACCGGGUCUCAGUGCA [Omei Trp Exc B A v8] :: 0.0133
GAUGAUAUUGCAGAUACCAGACACAUGAGGAUCACCCAUGUCGCUGGGUCGCUGGGUCGUGUCCCUUGGCAGCUGCGAUAUCAUC [Tibet] :: 0.339
AACGUAUACAGAAGGAGCGUGAAUUAUUUUAUUUUUUUAUAAACAUGAGGAUCACCCAUGUCACAGGUAGGUCGCUGUAUUCGUA [JR_ExcArginiB_Sub018] :: 0.0228

Consider the record given below.
## Input Given the sequence GCUGGGUGCGCAAGGACCUGGCGUUGCGAUACCAGCACGGUAACGUGCCCUUGGCAGCGCACAUGAGGAUCACCCAUGUGGUGUG [#1 Exclusion - Theophylline A Attempt #20 (HarryS)] , write its reported apparent KD of MS2 coat protein.
## Output 0.301

* * *

System: MS2 coat protein
assay-text: apparent KD of MS2 coat protein; designed switch direction (-1 OFF switch, 1 ON switch): -1; higher = weaker reporter binding
test-parameters: input ligand: microRNA oligo, concentration not stated
measurement-name: apparent KD of MS2 coat protein (nM)
Give just the number in nM; leave the unit off.

UUGUUCCGUGUAGGAUAUUGGUCUCCCUCGGGCCGAGAAGGACAUGAGGAUCACCCAUGUAUGCUAUUAUCGCGCGUGGCGCAC [Design 93] (Eterna round: R96, puzzle: Exclusion NG 1) :: 34.1
UACAUGAGGAUCACCCAUGUUUUGUCGUGUUUGGUACCCGUUUAGGAUAUCGUGUUAUUGUAUCGCGAGAAGGAGAGUAUCUUU [Excl-NG3-LRO09] (Eterna round: R96, puzzle: Exclusion NG 3) :: 27.1
UACAUGAGGAUCACCCAUGUUUUGUCGUGUAUGGUAUUUAUCUAGGAUAUCAUUUAAUUUAUUUAUGAGAAGGAGAAUAUUAAU [JMF's solution 99] (Eterna round: R96, puzzle: Exclusion NG 3) :: 28
GGAAACCUACCGCGACAUGAGGAUCACCCAUGUGAUUGGUUUUAGGAUAUCUGGAGAAUCCAGACAGAGAAGGAGGGCCGUCGC [Eternabot solution 38] (Eterna round: R96, puzzle: Exclusion NG 3) :: 28.5

Consider the record given below.
## Input Given the sequence CGGCAUGUACAAGGAUAUCAGCACGAUUAGUGCUGAGAAGGUGUAACAUGAGGAUCACCCAUGUAGAUCAUUAACCGAUUAAUU [ENG1/9-A2] (Eterna round: R96, puzzle: Exclusion NG 1) , write its reported apparent KD of MS2 coat protein.
## Output 64.3

* * *

System: K4 kissing-loop RNA reporter;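 note: bound reporter read as fluorescence of individual clusters on recovered sequencing chips by microscopy, with normalized cluster intensities fitted with a binding model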
assay-text: apparent KD of K4 kissing-loop reporter; higher = weaker reporter binding
test-parameters: Eterna round: R107; input ligand: theophylline 20 uM
Classify by measured apparent KD of K4 kissing-loop reporter: Satisfied if it is equal to or exceeds 100 nM, Not satisfied if it is smaller.

Below are worked cases with known answers.
AGGAUCACGUCAGUGAUGUUGACGAGAGAUACCAGAGACGAAAGUCUCCCUUGGCAGCUCAUCGUGAUCCGUGACAAAGGUCACA [Omei KL hio A SS C v4] :: Satisfied
UAAUCCUAGUGAUAAUAAUCAAGUGGUGGGCGAGGACCGGUACGGCCGCCACUCGAAAAUGCAGUGAUGUUGUAAUCCGGAUAAU [Exclusion - Tryptophan A (Freestyle 5)] :: Satisfied
UGUACCGAGUCAGGAUAUGCCGUCGAAAGACGAAAGCAGUGAUGUUGCAUCGAUCGAAAGAUCGUUGCAGAAGGGACUUGGUACU [FmnBS 23 #SwitchBubble #StaticStem #DoubleMagnetSystem] :: Satisfied
GGAUAGGACAGAGGAUAUCUCUGAGGCAAGAAAACUUGUCUCAAAAGAGAUGACUCAGUGAUGUUGAGAGAAGGCUGUCCUAUCG [FmnBX 8 - #SwitchBubble #StaticStem] :: Satisfied
GCCGUACGCAUGGAUACCAGCAUUUAUGACACACUGCUAGUGAUGUUAGCUAUGCGUAUAUGCCCUUGGCAGCCAUGCGUACGGC :: Not satisfied
GUGCGGUGGAGGUUACCGCUACUCUGAGAAGGAGCGCAGAUGACUGCAGGUAGGUCGCUUAGAGCUUGCAGUGAUGUUGCAAGUU [Anquatbiat] :: Satisfied
GCCGUACGCAUGGAUACCAGUCUUAGAGUGAUGUUCUAAACGAUUGCGCCUGGAUCAAUGGACCCUUGGCAGCCAUGCGUACGGC :: Not satisfied
CCUUCUCUUGGUAGUGAUGUUAUCAAGGACAAGGAUAUCAUCUCAAUGAGAAGGUGUCCUUGAUAACAUGGAGGUCUGAAACAGA [Omei KL FMN A Exc C v8] :: Satisfied

Please turn your attention to the following entry.
## Input Check this sequence for apparent KD of K4 kissing-loop reporter at or above 100 nM: AGUACAGACACGGCCGCCACUCAGAAGAAGAUAGUAGUGAUGUUACUGAUGAUGAGAAUAAUAAAGAGGACCGGGUGUUGUGCAA [#09 K4 Tryptophan B Same State]
## Output Satisfied
